Where do these numbers come from? They come from ChEMBL document CHEMBL1201862.

Tested on: M14
Test: NCI tumour cell line growth inhibition, 48 h
Activity calls are given as the source filed them. No stated cut-off is given here; in the data, active = GI50 up to about 1.1 µM and inactive = higher.
What GI50 was measured for each of the following?

Field: example entries. Status: answers known.
OCC1COc2cc(Cl)c(Cl)cc2O1 (stereo unspecified): > 10 µM (inactive)
NS(=O)(=O)c1ccc(NCc2cnc3ccccc3c2)cc1: > 100 µM (inactive)
COC(=O)C1=C(O)c2cc3c(cc2[C@H](c2cc(OC)c(OC)c(OC)c2)C1)OCO3: 34.7 µM (inactive)
O=C1/C(=C/c2ccc(Cl)cc2)N=C(c2ccccc2)N1c1nc2ccc(Sc3ccccc3)cc2[nH]1: 16.3 µM (inactive)
Cc1c(C(=O)/C=C/c2ccccc2)[n+]([O-])c2ccccc2[n+]1[O-]: 15.3 µM (inactive)

Batch of 2 compounds: report GI50 for each.
1. Fc1ccc(C(OCCN2CCN(CCCc3ccccc3)CC2)c2ccc(F)cc2)cc1
2. O=C1/C(=C/c2ccc(Cl)cc2)Oc2cc(O)ccc21 [6-HYDROXY-4'-CHLORO AURONE]

["3.12 µM (inactive)", "50.6 µM (inactive)"]
